Target: VRK1 (Homo sapiens, UniProt Q99986)
Sequence (Q99986 1-396): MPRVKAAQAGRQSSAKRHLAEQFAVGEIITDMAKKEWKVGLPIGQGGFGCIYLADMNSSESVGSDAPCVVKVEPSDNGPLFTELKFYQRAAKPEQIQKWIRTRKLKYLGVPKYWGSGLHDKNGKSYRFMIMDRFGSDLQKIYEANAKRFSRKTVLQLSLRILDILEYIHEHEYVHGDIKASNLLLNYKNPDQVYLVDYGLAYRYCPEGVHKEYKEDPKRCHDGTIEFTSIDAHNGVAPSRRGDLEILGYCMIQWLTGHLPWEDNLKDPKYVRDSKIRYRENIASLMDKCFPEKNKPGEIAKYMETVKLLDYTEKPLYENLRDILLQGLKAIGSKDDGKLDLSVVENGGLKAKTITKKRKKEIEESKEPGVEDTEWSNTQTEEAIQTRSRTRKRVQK
assay_endpoint: IC50
The number alone won't do; follow it with the unit.

Quick one: give measured IC50 for "CN1CCCNc2c(c(=O)c2=O)NCCCN(C)CCCNc2c(c(=O)c2=O)NCCCN(C)CCCNc2c(c(=O)c2=O)NCCCN(C)CCCNc2c(c(=O)c2=O)NCCCN(C)CCCNc2c(c(=O)c2=O)NCCC1"
2400 nM

====

Molecular target: FGF-R2 (Homo sapiens)
Sequence (P21802 22-821): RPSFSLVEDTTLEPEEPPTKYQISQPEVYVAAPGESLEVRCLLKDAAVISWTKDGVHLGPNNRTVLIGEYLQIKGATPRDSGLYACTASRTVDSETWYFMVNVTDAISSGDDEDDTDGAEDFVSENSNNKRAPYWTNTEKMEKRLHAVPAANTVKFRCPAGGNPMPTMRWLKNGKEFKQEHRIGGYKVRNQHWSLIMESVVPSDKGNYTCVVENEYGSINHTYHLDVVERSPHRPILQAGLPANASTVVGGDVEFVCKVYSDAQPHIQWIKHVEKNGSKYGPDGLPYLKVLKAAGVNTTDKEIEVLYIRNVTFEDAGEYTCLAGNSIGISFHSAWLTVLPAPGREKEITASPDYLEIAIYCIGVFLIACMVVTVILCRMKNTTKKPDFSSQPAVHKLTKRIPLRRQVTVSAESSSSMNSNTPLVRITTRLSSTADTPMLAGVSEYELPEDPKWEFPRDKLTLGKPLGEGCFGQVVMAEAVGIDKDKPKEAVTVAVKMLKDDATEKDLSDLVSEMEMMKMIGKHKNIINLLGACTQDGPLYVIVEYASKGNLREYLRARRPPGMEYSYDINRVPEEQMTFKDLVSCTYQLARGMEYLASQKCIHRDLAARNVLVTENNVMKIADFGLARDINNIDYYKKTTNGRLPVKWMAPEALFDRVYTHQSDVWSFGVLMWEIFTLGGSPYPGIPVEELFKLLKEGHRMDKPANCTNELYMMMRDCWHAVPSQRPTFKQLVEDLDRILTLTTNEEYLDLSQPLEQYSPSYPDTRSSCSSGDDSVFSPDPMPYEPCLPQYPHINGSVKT
assay_endpoint: IC50 (µM)
Give just the numeric value; µM need not be written.

Quick one: give measured IC50 for "CN1CCCNc2c(c(=O)c2=O)NCCCN(C)CCCNc2c(c(=O)c2=O)NCCCN(C)CCCNc2c(c(=O)c2=O)NCCCN(C)CCCNc2c(c(=O)c2=O)NCCCN(C)CCCNc2c(c(=O)c2=O)NCCC1"
5.4
